# System: Candida albicans
# assay_conditions: 32 ug/mL
# Description: Antifungal activity against Candida albicans ATCC 90028 (CO-ADD:FG_001); MIC in YNB media using NBS plates, by OD630
Measured potencies and affinities stand elsewhere.
measurement_label: Inhibition (%)
Numbers only; they are read as %.

The cases that follow already have their Inhibition on record.
>>> result("O=C(NNC(=O)[C@@H]1C[C@H](C(=O)O)[C@@H]2CCC[C@@H]21)c1ccncc1")
2.57
>>> result("O=C(NN=CC[C@@H]1[C@@H](/C=C/[C@@H](O)CCc2ccccc2)[C@H](O)C[C@@H]1O)c1ccncc1")
-1.24

Notebook: pull reported Inhibition for Candida albicans, entry O=C(N/N=C1\C[C@@H]2[C@@H](CO)[C@H]1C[C@H]2Cl)c1ccncc1
-0.38

Find the measured Inhibition: item O=C(N/N=C1/C[C@@H]2[C@H](COC(c3ccccc3)(c3ccccc3)c3ccccc3)C[C@H](COC(c3ccccc3)(c3ccccc3)c3ccccc3)[C@@H]2C1)c1ccncc1 , target or system Candida albicans.
2.84

Identify the measured Inhibition of COC(=O)C[C@H]1[C@H](/C=N\NC(=O)c2ccncc2)[C@@H](O[Si](C)(C)C(C)(C)C)C[C@@H]1Cl for Candida albicans.
1.67

What Inhibition appears in the records for this molecule with Candida albicans? O=C1C[C@@H]2[C@@H](C=NNC(=O)c3ccncc3)[C@@H](C[C@H]2Cl)O1
2.47

Candida albicans / Inhibition / O=C(N/N=C1/C[C@@H]2[C@H](C1)[C@H](OC(=O)c1ccccc1)C[C@@H]2OC(=O)c1ccccc1)c1ccncc1 : value?
16.2

Quick check: Inhibition on Candida albicans, item O=C(N/N=C/CCCO)c1ccncc1 ?
0.75
